molecular target: cGMP-specific 3',5'-cyclic phosphodiesterase (Canis lupus familiaris)
Measured parameter: IC50 (nM)

[
  {
    "Compound": "COc1ccc(CNc2nc(N3CCC[C@H]3CO)ncc2C(=O)N[C@H]2CC[C@H](OC)CC2)cc1Cl",
    "Tested target": "cGMP-specific 3',5'-cyclic phosphodiesterase (Canis lupus familiaris)",
    "Measured parameter": "IC50",
    "Units symbol": "nM",
    "Quantitative readout": 0.9
  },
  {
    "Compound": "COc1ccc(CNc2nc(N3CCC[C@H]3CO)ncc2C(=O)N[C@H]2CC[C@H](O)CC2)cc1Cl",
    "Tested target": "cGMP-specific 3',5'-cyclic phosphodiesterase (Canis lupus familiaris)",
    "Measured parameter": "IC50",
    "Units symbol": "nM",
    "Quantitative readout": 1.8
  },
  {
    "Compound": "COc1ccc(CN=c2[nH]c(N3CCC[C@H]3CO)ncc2C(=O)NCc2ncccn2)cc1Cl",
    "Tested target": "cGMP-specific 3',5'-cyclic phosphodiesterase (Canis lupus familiaris)",
    "Measured parameter": "IC50",
    "Units symbol": "nM",
    "Quantitative readout": 5.2
  },
  {
    "Compound": "COc1ccc(CNc2nc(N3CCCCC3CO)ncc2C(=O)NCc2ccccn2)cc1Cl (configuration not stated)",
    "Tested target": "cGMP-specific 3',5'-cyclic phosphodiesterase (Canis lupus familiaris)",
    "Measured parameter": "IC50",
    "Units symbol": "nM",
    "Quantitative readout": 54
  },
  {
    "Compound": "COc1ccc(CNc2nc(N3Cc4ccccc4C[C@H]3CO)ncc2C(=O)NCc2ccccn2)cc1Cl",
    "Tested target": "cGMP-specific 3',5'-cyclic phosphodiesterase (Canis lupus familiaris)",
    "Measured parameter": "IC50",
    "Units symbol": "nM",
    "Quantitative readout": 6.5
  }
]

(a) COCCCNC(=O)c1cnc(OCc2ccccn2)nc1NCc1ccc(OC)c(Cl)c1
(b) CCOC(=O)c1cnc(OCc2ccccn2)nc1NCc1ccc(OC)c(Cl)c1
(c) COc1ccc(CNc2nc(N3CCCC(CO)C3)ncc2C(=O)NCc2ncccn2)cc1Cl (configuration not stated)
(d) COc1ccc(CNc2nc(OCc3ccccn3)ncc2C(=O)OCc2ccccn2)cc1Cl
(e) COc1ccc(CNc2nc(N3CCOC(CO)C3)ncc2C(=O)NCc2ccccn2)cc1Cl (configuration not stated)
INPUT: Rank items: key IC50, increasing. Record the ranking as a list of labels in the requested order.
OUTPUT: d, b, a, e, c
